- Organism: Homo sapiens
- assay comment: Selectivity ratio of EC50 for human vasopressin V1b receptor to EC50 for human vasopressin V1a receptor
Numbered stars: 1 amine (or outer) side, 2 acyl side, 3 side chain; on linkers, the order of the positions; unused ones are H or OH. Bridge positions count the residues as written; N and C are the ends. Square brackets hold non-standard residues; d marks the D form. Peptide text beside a SMILES is read from it. * marks the point of attachment. Orn(Me) = CN(CCC[C@H](N[*:1])C(=O)[*:2])[*:3]; 3Pal = N[C@@H](Cc1cccnc1)C(=O)O; 3Thi = N[C@@H](Cc1ccsc1)C(=O)O; Cha = N[C@@H](CC1CCCCC1)C(=O)O; Orn = NCCC[C@H](N)C(=O)O; Dab = NCC[C@H](N)C(=O)O; Ac4c = NC1(C(=O)O)CCC1; NHCH2CH2OH = OCCN*
attribute measured: Ratio EC50
Reply briefly: the number, and no unit.

Record excerpt, results attached:
Query string: Need Ratio EC50 of CC[C@H](C)[C@@H]1NC(=O)[C@H](Cc2ccccc2)NC(=O)[C@@H](N)CSSC[C@@H](C(=O)N2CCC[C@H]2C(=O)N[C@@H](CCN)C(=O)NCC(N)=O)NC(=O)[C@H](CC(N)=O)NC(=O)[C@H](CC(=O)NC)NC1=O (H-CFID(NHMe)NCP[Dab]G-NH2; disulfide 1-6) , thanks.
Result string: 2.2

Query string: Need Ratio EC50 of CC[C@H](C)[C@@H]1NC(=O)[C@H](Cc2cccnc2)NC(=O)[C@@H](N)CSSC[C@@H](C(=O)N2CCC[C@H]2C(=O)N[C@@H](CCN)C(=O)NCC(N)=O)NC(=O)[C@H](CC(N)=O)NC(=O)[C@H](CCC(N)=O)NC1=O (H-C[3Pal]IQNCP[Dab]G-NH2; disulfide 1-6) , thanks.
Result string: 6.6

Further cases:
Query string: Need Ratio EC50 of CC[C@H](C)[C@@H]1NC(=O)[C@H](Cc2ccccc2)NC(=O)[C@@H](N)CSSC[C@@H](C(=O)N2CCC[C@H]2C(=O)N[C@@H](CCCN)C(=O)NCC(N)=O)NC(=O)[C@H](CC(N)=O)NC(=O)[C@H](CC(=O)NCCO)NC1=O (H-CFID(NHCH2CH2OH)NCP[Orn]G-NH2; disulfide 1-6) , thanks.
Result string: 3.2

Query string: Need Ratio EC50 of CC[C@H](C)[C@@H]1NC(=O)[C@H](CC2CCCCC2)NC(=O)[C@@H](N)CSSC[C@@H](C(=O)N2CCC[C@H]2C(=O)N[C@@H](CCCN)C(=O)NCC(N)=O)NC(=O)[C@H](CC(N)=O)NC(=O)[C@H](CC(N)=O)NC1=O (H-C[Cha]INNCP[Orn]G-NH2; disulfide 1-6) , thanks.
Result string: 43

Query string: Need Ratio EC50 of CC[C@H](C)[C@@H]1NC(=O)C2(CCC2)NC(=O)[C@@H](N)CSSC[C@@H](C(=O)N2CCC[C@H]2C(=O)N[C@@H](CCN)C(=O)NCC(N)=O)NC(=O)[C@H](CC(N)=O)NC(=O)[C@H](CCC(N)=O)NC1=O (H-C[Ac4c]IQNCP[Dab]G-NH2; disulfide 1-6) , thanks.
Result string: 68

Query string: Need Ratio EC50 of CC[C@H](C)[C@@H]1NC(=O)[C@H](Cc2ccsc2)NC(=O)[C@@H](N)CSSC[C@@H](C(=O)N2CCC[C@H]2C(=O)N[C@@H](CCN)C(=O)NCC(N)=O)NC(=O)[C@H](CC(N)=O)NC(=O)[C@H](CCC(N)=O)NC1=O (H-C[3Thi]IQNCP[Dab]G-NH2; disulfide 1-6) , thanks.
Result string: 81

Query string: Need Ratio EC50 of CC[C@H](C)[C@@H]1NC(=O)[C@H](Cc2ccccc2)NC(=O)[C@@H](N)CSSC[C@@H](C(=O)N2CCC[C@H]2C(=O)N[C@@H](CCCNC)C(=O)NCC(N)=O)NC(=O)[C@H](CC(N)=O)NC(=O)[C@H](CC(N)=O)NC1=O (H-CFINNCP[Orn(Me)]G-NH2; disulfide 1-6) , thanks.
Result string: 27
